# condition.label: in 1,2-dichloroethane, 273.15 K
measurement.name: solubility (mole fraction)

{"columns": ["structure", "measurement.name", "endpoint.value"],
 "data": [
  ["N[C@@H](Cc1ccc([N+](=O)[O-])cc1[N+](=O)[O-])C(=O)O", "solubility (mole fraction)", "2.2e-09"]
]}

###

# condition.label: in water, 293.15 K

{"columns": ["structure", "solubility (mole fraction)"],
 "data": [
  ["N[C@@H](Cc1ccc([N+](=O)[O-])cc1[N+](=O)[O-])C(=O)O", "9.26e-06"]
]}

###

# condition.label: in isopropanol, 333.15 K

{"columns": ["structure", "solubility (mole fraction)"],
 "data": [
  ["N[C@@H](Cc1ccc([N+](=O)[O-])cc1[N+](=O)[O-])C(=O)O", 0.00015]
]}

###

# condition.label: in isopropanol, 273.15 K

{"columns": ["structure", "solubility (mole fraction)"],
 "data": [
  ["N[C@@H](Cc1ccc([N+](=O)[O-])cc1[N+](=O)[O-])C(=O)O", "1.51e-06"]
]}

###

# condition.label: in n-butanol, 323.15 K

{"columns": ["structure", "solubility (mole fraction)"],
 "data": [
  ["N[C@@H](Cc1ccc([N+](=O)[O-])cc1[N+](=O)[O-])C(=O)O", "6.29e-06"]
]}

###

# condition.label: in methanol, 273.15 K

{"columns": ["structure", "solubility (mole fraction)"],
 "data": [
  ["N[C@@H](Cc1ccc([N+](=O)[O-])cc1[N+](=O)[O-])C(=O)O", "1.5e-05"]
]}

###

# condition.label: in ethanol, 293.15 K

{"columns": ["structure", "solubility (mole fraction)"],
 "data": [
  ["N[C@@H](Cc1ccc([N+](=O)[O-])cc1[N+](=O)[O-])C(=O)O", 0.000195]
]}

###

# condition.label: in ethyl acetate, 333.15 K

{"columns": ["structure", "solubility (mole fraction)"],
 "data": [
  ["N[C@@H](Cc1ccc([N+](=O)[O-])cc1[N+](=O)[O-])C(=O)O", "1.12e-05"]
]}

###

# condition.label: in methanol, 303.15 K

{"columns": ["structure", "solubility (mole fraction)"],
 "data": [
  ["N[C@@H](Cc1ccc([N+](=O)[O-])cc1[N+](=O)[O-])C(=O)O", 0.000909]
]}

###

# condition.label: in ethanol, 303.15 K

{"columns": ["structure", "solubility (mole fraction)"],
 "data": [
  ["N[C@@H](Cc1ccc([N+](=O)[O-])cc1[N+](=O)[O-])C(=O)O", 0.00035]
]}

###

# condition.label: in 1,2-dichloroethane, 323.15 K

{"columns": ["structure", "solubility (mole fraction)"],
 "data": [
  ["N[C@@H](Cc1ccc([N+](=O)[O-])cc1[N+](=O)[O-])C(=O)O", "9.77e-07"]
]}

###

# condition.label: in methanol, 288.15 K

{"columns": ["structure", "solubility (mole fraction)"],
 "data": [
  ["N[C@@H](Cc1ccc([N+](=O)[O-])cc1[N+](=O)[O-])C(=O)O", 0.000192]
]}

###

# condition.label: in n-butanol, 303.15 K

{"columns": ["structure", "solubility (mole fraction)"],
 "data": [
  ["N[C@@H](Cc1ccc([N+](=O)[O-])cc1[N+](=O)[O-])C(=O)O", "4.28e-06"]
]}

###

# condition.label: in ethanol, 273.15 K

{"columns": ["structure", "solubility (mole fraction)"],
 "data": [
  ["N[C@@H](Cc1ccc([N+](=O)[O-])cc1[N+](=O)[O-])C(=O)O", "3.44e-05"]
]}

###

# condition.label: in water, 323.15 K

{"columns": ["structure", "solubility (mole fraction)"],
 "data": [
  ["N[C@@H](Cc1ccc([N+](=O)[O-])cc1[N+](=O)[O-])C(=O)O", 0.000523]
]}

###

# condition.label: in n-butanol, 293.15 K
measurement.name: solubility (mole fraction)

{"columns": ["structure", "measurement.name", "endpoint.value"],
 "data": [
  ["N[C@@H](Cc1ccc([N+](=O)[O-])cc1[N+](=O)[O-])C(=O)O", "solubility (mole fraction)", "3.99e-06"]
]}

###

# condition.label: in 1,2-dichloroethane, 303.15 K

{"columns": ["structure", "solubility (mole fraction)"],
 "data": [
  ["N[C@@H](Cc1ccc([N+](=O)[O-])cc1[N+](=O)[O-])C(=O)O", "1.05e-07"]
]}

###

# condition.label: in ethanol, 333.15 K

{"columns": ["structure", "solubility (mole fraction)"],
 "data": [
  ["N[C@@H](Cc1ccc([N+](=O)[O-])cc1[N+](=O)[O-])C(=O)O", 0.000772]
]}

###

# condition.label: in 1,2-dichloroethane, 293.15 K
measurement.name: solubility (mole fraction)

{"columns": ["structure", "endpoint.value"],
 "data": [
  ["N[C@@H](Cc1ccc([N+](=O)[O-])cc1[N+](=O)[O-])C(=O)O", "3.08e-08"]
]}

###

# condition.label: in isopropanol, 338.15 K
measurement.name: solubility (mole fraction)

{"columns": ["structure", "measurement.name", "endpoint.value"],
 "data": [
  ["N[C@@H](Cc1ccc([N+](=O)[O-])cc1[N+](=O)[O-])C(=O)O", "solubility (mole fraction)", 0.000167]
]}

###

# condition.label: in water, 353.15 K

{"columns": ["structure", "solubility (mole fraction)"],
 "data": [
  ["N[C@@H](Cc1ccc([N+](=O)[O-])cc1[N+](=O)[O-])C(=O)O", 0.00193]
]}

###

# condition.label: in methanol, 278.15 K

{"columns": ["structure", "solubility (mole fraction)"],
 "data": [
  ["N[C@@H](Cc1ccc([N+](=O)[O-])cc1[N+](=O)[O-])C(=O)O", "4.12e-05"]
]}

###

# condition.label: in sec-butanol, 283.15 K

{"columns": ["structure", "solubility (mole fraction)"],
 "data": [
  ["N[C@@H](Cc1ccc([N+](=O)[O-])cc1[N+](=O)[O-])C(=O)O", "6.79e-07"]
]}

###

# condition.label: in n-propanol, 353.15 K

{"columns": ["structure", "solubility (mole fraction)"],
 "data": [
  ["N[C@@H](Cc1ccc([N+](=O)[O-])cc1[N+](=O)[O-])C(=O)O", 0.000812]
]}

###

# condition.label: in sec-butanol, 313.15 K

{"columns": ["structure", "solubility (mole fraction)"],
 "data": [
  ["N[C@@H](Cc1ccc([N+](=O)[O-])cc1[N+](=O)[O-])C(=O)O", "9.45e-07"]
]}

###

# condition.label: in n-butanol, 283.15 K

{"columns": ["structure", "solubility (mole fraction)"],
 "data": [
  ["N[C@@H](Cc1ccc([N+](=O)[O-])cc1[N+](=O)[O-])C(=O)O", "3.91e-06"]
]}

###

# condition.label: in sec-butanol, 363.15 K

{"columns": ["structure", "solubility (mole fraction)"],
 "data": [
  ["N[C@@H](Cc1ccc([N+](=O)[O-])cc1[N+](=O)[O-])C(=O)O", "6.11e-06"]
]}

###

# condition.label: in n-propanol, 323.15 K

{"columns": ["structure", "solubility (mole fraction)"],
 "data": [
  ["N[C@@H](Cc1ccc([N+](=O)[O-])cc1[N+](=O)[O-])C(=O)O", "4.55e-05"]
]}

###

# condition.label: in isopropanol, 313.15 K
measurement.name: solubility (mole fraction)

{"columns": ["structure", "endpoint.value"],
 "data": [
  ["N[C@@H](Cc1ccc([N+](=O)[O-])cc1[N+](=O)[O-])C(=O)O", "6.78e-05"]
]}

###

# condition.label: in 1,2-dichloroethane, 333.15 K
measurement.name: solubility (mole fraction)

{"columns": ["structure", "measurement.name", "endpoint.value"],
 "data": [
  ["N[C@@H](Cc1ccc([N+](=O)[O-])cc1[N+](=O)[O-])C(=O)O", "solubility (mole fraction)", "2.69e-06"]
]}

###

# condition.label: in water, 368.15 K

{"columns": ["structure", "solubility (mole fraction)"],
 "data": [
  ["N[C@@H](Cc1ccc([N+](=O)[O-])cc1[N+](=O)[O-])C(=O)O", 0.00201]
]}

###

# condition.label: in n-propanol, 283.15 K

{"columns": ["structure", "solubility (mole fraction)"],
 "data": [
  ["N[C@@H](Cc1ccc([N+](=O)[O-])cc1[N+](=O)[O-])C(=O)O", "3.54e-06"]
]}

###

# condition.label: in acetone, 303.15 K
measurement.name: solubility (mole fraction)

{"columns": ["structure", "measurement.name", "endpoint.value"],
 "data": [
  ["N[C@@H](Cc1ccc([N+](=O)[O-])cc1[N+](=O)[O-])C(=O)O", "solubility (mole fraction)", "3.06e-06"]
]}
